ASSAY_REMARKS: physchem
CONDITION_SET: water
Reported solubility values for a set of compounds
Numeric answer only, unit µg/mL assumed.

[[record]]
compound = "CC(C)OC(=O)c1ccc(O)cc1 [Isopropyl p-Hydroxybenzoate, isopropyl p-hydroxybenzoate]"
measured_number = 800


Switching to the query record.
Request the reported solubility associated with CC(C)COC(=O)c1ccc(O)cc1 [Isobutyl p-Hydroxybenzoate, isobutyl p-hydroxybenzoate]
200

---

ASSAY_REMARKS: water solubility
QUANTITY_KIND: solubility (µg/mL)
Respond with the bare value in µg/mL.

Entry CCCCOC(=O)c1ccc(O)cc1 [n-Butyl p-Hydroxybenzoate, n-butyl p-hydroxybenzoate] : reported solubility = ?
150
